- System: SK-MEL-2
- Method Summary: NCI tumour cell line growth inhibition, 48 h
Calls of active or inactive are those of the source. Rule as the data show it: active = GI50 up to about 1.1 µM and inactive = higher.
Documented GI50 across a set of molecules

Molecule | GI50
COc1ccc(C(c2ccc(OC)cc2)N2C(=O)CCC2C(=O)O)cc1 (stereo not drawn) | > 100 µM (inactive)
CCOC(=O)C1C(c2cc(OC)c(O)c(OC)c2)c2cc3c(cc2OC1(C)O)OCO3 (stereo not drawn) | > 100 µM (inactive)
N#Cc1nnn(C2CCCCC2)c1O | > 100 µM (inactive)

====

- Test system: SK-MEL-5
- Method Summary: NCI tumour cell line growth inhibition, 48 h
Calls of active or inactive are those of the source. Rule as the data show it: active = GI50 up to about 1.1 µM and inactive = higher.
Possible outcomes: active, inactive

Compound | Class Label
O=C(NC1CCCCCC1)C1C(=O)N(C2CCCCCC2)C(=O)/C1=N\O (stereo unspecified) | inactive
N#CCCN(CCC#N)c1ccc(/C=C2\N=C(c3ccccc3)N(c3ccccc3)C2=O)cc1 | inactive
CC(=O)CCCCCCCCCCCC[C@@H]1CC[C@H](C)[C@H](O)N1 | inactive
COc1cc(C(c2c(O)c3ccccc3oc2=O)c2c(O)c3ccccc3oc2=O)ccc1O | inactive
O=C(O)c1c[nH]cc1C(=O)O | inactive
CCn1c(SCC(=O)N/N=C2\SCC(=O)N2c2ccc(C)cc2)nc2ccccc2c1=O | inactive
O=C(c1cc2ccccc2o1)N(Cc1ccccc1)c1ccccc1 | inactive
C=C1C(=O)O[C@H]2C[C@@H]1[C@@H](O)[C@H](O)[C@@H](C)CCCC(C)=CCC[C@@]2(C)O | inactive
O=C1Nc2ccccc2/C1=N/Nc1ccccc1[N+](=O)[O-] | inactive
O=C1N[C@@H]2c3c(Br)sc(Br)c3C(=O)[C@@H]2N1 | inactive
COc1ccc(O)c(/C(C)=N/NC(=S)N(C)C)c1 | inactive
CN1CCOC(C(NC(=O)c2ccccc2)c2ccccc2)C1=O (stereo unspecified) | inactive
CCOC1CC2OC(=O)C1C=C2C(=O)OC (stereo unspecified) | inactive
COc1ccc(/C=C2\CNC/C(=C\c3ccc(OC)cc3)C2=O)cc1 | inactive
CC(=O)O[C@H]1C(=O)[C@@]2(C)C(C(OC(=O)c3ccccc3)[C@]3(O)CC(OC(=O)C(O)C(NC(=O)c4cccc(Cl)c4)c4ccccc4)C(C)=C1C3(C)C)[C@]1(OC(C)=O)CO[C@@H]1C[C@@H]2O (stereo partly specified) | active
C/C=C\C(CC(=O)O)CC(=O)NCCC1CN(S(=O)(=O)C(F)(F)F)c2ccccc21 (stereo unspecified) | inactive
CC(C)(C)OC(=O)NCC(=O)N1CCCN(C(=O)CNC(=O)OC(C)(C)C)CC1 | inactive
CC1OC(OC2C(O)COC(OC3C(C)OC(OC4C(OC(=O)[C@]56CCC(C)(C)C[C@@H]5C5=CCC7[C@@]8(C)C[C@H](O)[C@H](OC9OC(CO)C(O)C(O)C9O)[C@@](C)(CO)[C@@H]8CC[C@@]7(C)[C@]5(C)CC6)OCC(O)C4O)C(O)C3OC3OCC(O)(CO)C3O)C2O)C(O)C(O)C1O (stereo partly specified) | inactive
CC(=O)OCC1OC(N=[N+]=[N-])C(OC(C)=O)C(OC(C)=O)C1OC1OC(COC(C)=O)C(OC(C)=O)C(OC(C)=O)C1OC(C)=O (stereo unspecified) | inactive
CCOC(CN=C=S)OCC | inactive
Cc1ccccc1C(=O)C#Cc1cn(C2CC(O)C(CO)O2)c(=O)[nH]c1=O (stereo unspecified) | inactive
C/C1=C\CC[C@@]2(C)O[C@@H]2C[C@@H]2[C@H](C/C(C)=C/CC1)OC(=O)C21CCN=N1 (stereo partly specified) | inactive
O=c1c2sc(=S)n(-c3ccc(F)cc3)c2ncn1/N=C/c1ccc(F)cc1F | inactive
O=C1Nc2ccccc2NC1C1OC(c2ccccc2)=CC1=O (stereo unspecified) | inactive
COc1ccc2c([nH]c3cc(O)c(C)cc32)c1C=O | inactive
NCP(=O)(O)OCC(=O)O | inactive
COc1ccccc1N1C(=O)CC(=O)N(C(=O)CCCCCCCCC(=O)N2C(=O)CC(=O)N(c3ccccc3OC)C2=S)C1=S | inactive
Cc1ccc(C(=O)N2CCCCC2)cc1/N=N/N(C)C | inactive
O=C(c1ccccc1)N1C(=S)N(c2ccc([N+](=O)[O-])cc2)C(=N/c2ccccc2)/C1=N\c1ccccc1 | inactive
COc1cc2ccc1OCc1cccc(n1)COc1ccc(cc1OC)/C=N\c1ccc(cc1)-c1ccc(cc1)/N=C\2 | inactive
CC(=O)/C(=C\NC(N)=S)C(=O)Nc1ccccc1C | inactive
